Where do the numbers come from? From paper PMC7850424.

Record form. Attribute: inhibition at 50 µM. Fill in for each entry.
Experimental system: SARS-CoV-2 3CL^pro (Severe acute respiratory syndrome coronavirus 2, UniProt P0DTD1)
Experiment description: biochemical
Experimental parameters: read-out: % Inhibition at 50 μM, 50 μM compound
Give just the numeric value; % need not be written.

Record O=c1cc(-c2ccccc2)oc2cc(O)c(O)cc12 [6,7-Dihydroxyflavone] ; system SARS-CoV-2 3CL^pro (Severe acute respiratory syndrome coronavirus 2, UniProt P0DTD1); inhibition at 50 µM = 56.7

O=c1cc(-c2ccccc2)oc2cc(O)cc(O)c12 [Chrysin] tested on SARS-CoV-2 3CL^pro (Severe acute respiratory syndrome coronavirus 2, UniProt P0DTD1) gave inhibition at 50 µM: 2.6

Form field, inhibition at 50 µM with SARS-CoV-2 3CL^pro (Severe acute respiratory syndrome coronavirus 2, UniProt P0DTD1), item O=c1c(O)c(-c2cc(O)c(O)c(O)c2)oc2cc(O)cc(O)c12 [Myricetin] : 30.8

// assay SARS-CoV-2 3CL^pro (Severe acute respiratory syndrome coronavirus 2, UniProt P0DTD1), entry O=c1cc(-c2ccccc2)oc2ccc(O)c(O)c12 [5,6-Dihydroxyflavone] , inhibition at 50 µM value = 26.6

inhibition at 50 µM for SARS-CoV-2 3CL^pro (Severe acute respiratory syndrome coronavirus 2, UniProt P0DTD1) with input COc1c(O)cc(O)c2c(=O)cc(-c3ccccc3)oc12 [Wogonin] equals 6.1

// assay SARS-CoV-2 3CL^pro (Severe acute respiratory syndrome coronavirus 2, UniProt P0DTD1), entry O=c1c(O)c(-c2ccc(O)cc2)oc2c(O)c(O)cc(O)c12 [Herbacetin] , inhibition at 50 µM value = 59.1

The recorded inhibition at 50 µM with SARS-CoV-2 3CL^pro (Severe acute respiratory syndrome coronavirus 2, UniProt P0DTD1) for O=C(O)[C@H]1O[C@@H](Oc2cc3oc(-c4ccc(O)cc4)cc(=O)c3c(O)c2O)[C@H](O)[C@@H](O)[C@@H]1O [Scutellarin] was 28.9
